Please find below pIC50 data on FBXL10 (Homo sapiens (Human), UniProt Q8NHM5) compiled from the literature.
pIC50: −log10 of the molar value.

Example entries begin here.
compound | observed.measurement
CC(=O)OCn1nnc(-c2ccnc(-c3cn(Cc4ccccc4Cl)cn3)c2)n1 | 6.00 to 7.00
CCN(CC)CCCCNCc1cc(/C=N\CCC2CCCCC2)ccn1 | < 5.60
O=C(O)c1ccnc(-n2nc(Cc3ccccc3)cc2O)c1 | > 7.00
Cn1cnc(-c2cc(C(=O)O)ccn2)c1-c1ccc(OCC2CC2)cc1 | 6.00 to 7.00
CCN(CC(=O)N1CCCCC1)Cc1cc(C(=O)O)ccn1 | 6.00 to 7.00
CC1CC1/N=C/c1ccnc(CNCC(=O)N(C)C)c1 (stereo not shown) | 5.60 to 6.60
c1ccc2c(c1)CCC(Cn1cnc(-c3cc(-c4nn[nH]n4)ccn3)c1)C2 (stereo not shown) | ≥ 7.00
CN(CCn1cnc(-c2cc(C(=O)O)ccn2)c1)c1ccc(Cl)cc1 | ≥ 7.00

Exercise: What value of pIC50 has been reported for the following compound? N#Cc1[nH]nnc1-c1ccnc(-c2cn(CC3CCCc4ccccc43)cn2)c1 (stereo not shown)
Key: ≥ 7.00

Exercise: Let us now turn to CN(C)CC1CCC(CNCc2cc(/C=N/C3CC3)ccn2)CC1 (stereo not shown)
Key: < 5.60

Exercise: Let us now turn to CN1CCCC1CCNCc1cc(/C=N/C2CC2)ccn1 (stereo not shown)
Key: < 5.60

====

Please find below IC50 data on FBXL10 (Homo sapiens (Human)) compiled from the literature.

compound | IC50
c1ccc(COc2ccccc2CCn2cnc(-c3cc(-c4c[nH]nn4)ccn3)c2)cc1 | ≤ 100 nM
CC(C)N(CC(=O)N1CCCCC1)Cc1cc(C(=O)O)ccn1 | 100 to 1000 nM
O=C(Nc1ccc2cc(C(=O)C3CCCN(CC4CC4)C3)ccc2c1)C1CC1 (stereo not drawn) | 355 nM
O=C(O)c1ccnc(CN[C@@H]2CCN(CCCc3ccccc3)C2)c1 | ≥ 1000 nM
Cn1cnc(-c2cc(C(=O)O)ccn2)c1-c1ccc(F)cc1 | ≤ 100 nM

Exercise: For the record CN(C)CCNCc1ccnc(CNCCCN(C)Cc2ccccc2)c1 , what value of IC50 is listed for FBXL10 (Homo sapiens (Human))?
Key: > 2500 nM

Exercise: Let us now turn to O=C(O)c1ccnc(CN2CCn3ccnc3C2)c1
Key: > 2500 nM

Exercise: Let us now turn to CN(C)CCCCNCc1cc(CNC2CC2)ccn1
Key: > 2500 nM

Exercise: Let us now turn to C[C@H](N[C@H](C)c1cc(C(=O)O)ccn1)C(=O)NCc1ccc(CO)cc1
Key: 250 to 2500 nM

====

Please find below IC50 data on FBXL10 (Homo sapiens (Human), UniProt Q8NHM5) compiled from the literature.

Example entries begin here.
compound | observed.measurement
O=C(CNCc1cc(/C=N/C2CC2)ccn1)NC1CCN(Cc2ccccc2)C1 (stereo not shown) | 250 to 2500 nM
CN1CCN(C(=O)CNCc2cc(C=O)ccn2)CC1 | > 2500 nM

Exercise: What value of IC50 has been reported for the following compound? Fc1c(Cl)cccc1Cn1cnc(-c2cc(-c3c[nH]nn3)ccn2)c1
Key: ≤ 100 nM

Exercise: Let us now turn to CCN1CCC[C@H](CNCc2cc(C(=O)O)ccn2)C1=O
Key: < 250 nM

Exercise: Let us now turn to CCN1CCN(C2=NCCN2S(=O)(=O)c2ccc(C)cc2)CC1
Key: 3.76 nM

Exercise: Let us now turn to O=Cc1ccnc(CNCC(=O)N2CCC(Cc3ccccc3)CC2)c1
Key: > 2500 nM

Exercise: Let us now turn to C=CCN(CC=C)C(=O)[C@H](CC(=O)NCCCN(C)C)NCc1cc(C(=O)O)ccn1
Key: > 2500 nM
